Ki values recorded for 5-hydroxytryptamine receptor 1A (Homo sapiens)
property_name: Ki

> print(dat)
                                   compound  readout.value
1  CC(C)(C)NCC(O)COc1cccc2c1SCCC2 (single isomer, unassigned; (-)) [TERTATOLOL(-)]         6.7 nM
2  CCCN(CCC)C1CCc2ccc(O)cc2C1 (configuration not stated)         265 nM
